- target_system: recombinant soluble homotrimeric HA of A/duck/Yangzhou/02/05 (H8N4) (Influenza A virus A/duck/Yangzhou/02/2005(H8N4))
- experiment_notes: HA microarray, BCC supernatant
- condition_set: remark: other sources report otherwise
Listed here: items and their measured Trimeric HA Binding: RLU.
observation_type: Trimeric HA Binding: RLU

binder	result
TCN-557 (5081_A04) (antibody, V domains shown) VH: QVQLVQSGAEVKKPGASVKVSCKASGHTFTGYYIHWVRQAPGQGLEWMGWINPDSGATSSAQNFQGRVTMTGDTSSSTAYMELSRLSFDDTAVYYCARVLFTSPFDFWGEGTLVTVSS VL: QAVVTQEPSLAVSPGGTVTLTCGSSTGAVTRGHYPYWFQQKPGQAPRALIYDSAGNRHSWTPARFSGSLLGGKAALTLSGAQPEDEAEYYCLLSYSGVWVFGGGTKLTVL	50100 RLU
TCN-535 (5246_P19) (antibody, V domains shown) VH: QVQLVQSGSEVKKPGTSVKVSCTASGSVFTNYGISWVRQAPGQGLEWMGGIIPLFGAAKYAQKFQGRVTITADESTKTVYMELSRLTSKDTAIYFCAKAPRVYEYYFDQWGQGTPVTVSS VL: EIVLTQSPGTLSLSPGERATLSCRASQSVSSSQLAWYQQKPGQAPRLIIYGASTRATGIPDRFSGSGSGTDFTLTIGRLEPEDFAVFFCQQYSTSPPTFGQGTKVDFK	36600 RLU
TCN-537 (3194_D21) (antibody, V domains shown) VH: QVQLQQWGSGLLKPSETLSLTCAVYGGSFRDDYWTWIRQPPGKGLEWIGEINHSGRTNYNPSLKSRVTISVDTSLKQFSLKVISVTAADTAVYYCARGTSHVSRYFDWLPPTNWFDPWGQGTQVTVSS VL: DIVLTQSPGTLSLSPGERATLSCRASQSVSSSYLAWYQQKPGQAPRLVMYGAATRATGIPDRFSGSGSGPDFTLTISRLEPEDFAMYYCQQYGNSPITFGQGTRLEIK	7830 RLU
